- ASSAY_PROTOCOL: LogD7.4 measurement (1-octanol / sodium phosphate buffer)
- Assay type: physicochemical
- CONDITION_DESCRIPTION: 1-octanol/sodium phosphate buffer, pH 7.4; Table 1; text gives this value as measured logD7.4; read-out: cLogD7.4
OBSERVABLE: logD

MOLECULE | VALUE
COc1ccc2c(c1)CCN(CCCCc1ccc(C)cc1)CC2O (stereo not shown) [NR2B-Me] | 3.27

###

- TARGET_OR_TEST_SYSTEM: GluN2B receptors (Rattus norvegicus, UniProt P35439+Q00960)
- Construct: from tissue; host or cells: brain of living male rats (PET imaging)
- Sequence (Q00960 27-1482, other chains not shown): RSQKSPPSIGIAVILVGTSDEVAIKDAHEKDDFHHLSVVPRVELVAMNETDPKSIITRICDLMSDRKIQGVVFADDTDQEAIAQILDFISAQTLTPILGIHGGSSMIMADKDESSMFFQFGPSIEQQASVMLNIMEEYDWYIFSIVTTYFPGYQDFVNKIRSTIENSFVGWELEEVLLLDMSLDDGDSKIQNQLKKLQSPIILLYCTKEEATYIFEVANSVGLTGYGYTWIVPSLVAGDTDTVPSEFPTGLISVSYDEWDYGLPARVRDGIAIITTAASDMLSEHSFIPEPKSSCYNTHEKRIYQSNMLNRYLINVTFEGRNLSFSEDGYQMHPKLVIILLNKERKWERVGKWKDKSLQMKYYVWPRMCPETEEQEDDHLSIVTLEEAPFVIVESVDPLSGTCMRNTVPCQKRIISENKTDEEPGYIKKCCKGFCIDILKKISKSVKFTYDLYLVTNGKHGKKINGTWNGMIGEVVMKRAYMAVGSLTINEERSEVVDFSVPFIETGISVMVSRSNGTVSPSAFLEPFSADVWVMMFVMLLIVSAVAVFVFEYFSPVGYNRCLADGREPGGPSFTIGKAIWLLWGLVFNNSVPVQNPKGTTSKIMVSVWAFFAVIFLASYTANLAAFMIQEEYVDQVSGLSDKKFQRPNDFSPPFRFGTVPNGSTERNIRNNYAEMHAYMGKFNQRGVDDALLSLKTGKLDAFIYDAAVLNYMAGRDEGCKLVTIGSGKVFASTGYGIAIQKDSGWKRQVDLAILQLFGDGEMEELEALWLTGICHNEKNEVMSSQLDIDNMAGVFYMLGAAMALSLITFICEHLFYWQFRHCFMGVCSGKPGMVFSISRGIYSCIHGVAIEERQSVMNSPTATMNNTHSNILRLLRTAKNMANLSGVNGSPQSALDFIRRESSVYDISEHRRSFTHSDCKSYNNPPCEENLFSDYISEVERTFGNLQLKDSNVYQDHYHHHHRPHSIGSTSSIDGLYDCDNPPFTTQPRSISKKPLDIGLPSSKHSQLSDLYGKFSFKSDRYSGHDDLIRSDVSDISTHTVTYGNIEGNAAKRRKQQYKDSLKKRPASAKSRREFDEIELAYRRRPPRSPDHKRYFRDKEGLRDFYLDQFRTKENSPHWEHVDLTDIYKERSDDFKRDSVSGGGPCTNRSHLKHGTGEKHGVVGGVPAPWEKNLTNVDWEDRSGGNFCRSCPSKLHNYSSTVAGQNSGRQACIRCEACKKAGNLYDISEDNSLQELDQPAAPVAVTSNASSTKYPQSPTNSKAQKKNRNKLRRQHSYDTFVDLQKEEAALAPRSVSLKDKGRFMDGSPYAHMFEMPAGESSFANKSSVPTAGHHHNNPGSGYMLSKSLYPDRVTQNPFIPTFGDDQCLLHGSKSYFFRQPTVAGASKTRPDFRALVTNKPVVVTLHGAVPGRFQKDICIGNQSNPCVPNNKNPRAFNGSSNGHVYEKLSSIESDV
- ASSAY_PROTOCOL: ED50 for pre-blocking of GluN2B radioligand uptake in rat whole brain (PET)
- Assay type: in vivo
- CONDITION_DESCRIPTION: pre-blocking, radioligand ^11C-(−)-NR2B-Me, AUC 20-90 min
OBSERVABLE: ED50 in rat whole brain in vivo ^11C-(−)-NR2B-Me (nmol/kg)

MOLECULE | TARGET_OR_TEST_SYSTEM | UOM | VALUE_COMPARATOR | VALUE
CC(C)=CCN1CC[C@]2(C)c3cc(O)ccc3C[C@H]1[C@H]2C [(+)-Pentazocine] | GluN2B receptors (Rattus norvegicus, UniProt P35439+Q00960) | nmol/kg | > | 1000
OC12C3C4CC5C6C4C1C6C(C53)N2CCc1cccc(F)c1 (stereo not drawn) [TC1] | GluN2B receptors (Rattus norvegicus, UniProt P35439+Q00960) | nmol/kg | = | 48
CN(C)CCN(C)CCc1ccc(Cl)c(Cl)c1 [BD1047] | GluN2B receptors (Rattus norvegicus, UniProt P35439+Q00960) | nmol/kg | = | 900
O=C(OCCN1CCOCC1)C1(c2ccccc2)CCCCC1 [PRE-084] | GluN2B receptors (Rattus norvegicus, UniProt P35439+Q00960) | nmol/kg | > | 1000
COc1ccc(CCN2CCN(CCCc3ccccc3)CC2)cc1OC [SA4503] | GluN2B receptors (Rattus norvegicus, UniProt P35439+Q00960) | nmol/kg | = | 43
COC(=O)C1(c2ccc(C)cc2)CC1CN1CCC(O)(c2ccccc2)CC1 (racemic) [( ±)-PPCC] | GluN2B receptors (Rattus norvegicus, UniProt P35439+Q00960) | nmol/kg | > | 1000
